Molecular target: MBP-FoxP3dN (Mus musculus, UniProt Q99JB6 188-423)
Sequence: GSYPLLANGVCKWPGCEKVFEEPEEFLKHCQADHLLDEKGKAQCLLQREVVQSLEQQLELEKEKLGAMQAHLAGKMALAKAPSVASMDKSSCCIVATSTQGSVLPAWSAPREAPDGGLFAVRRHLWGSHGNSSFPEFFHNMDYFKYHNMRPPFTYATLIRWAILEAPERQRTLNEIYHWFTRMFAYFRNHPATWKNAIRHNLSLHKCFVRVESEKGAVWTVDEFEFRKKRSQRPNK
Experiment: PD-seq (MBP pull-down with sequencing); 20 mM Tris-HCl pH 7.5, 100 mM NaCl, 1.5 mM MgCl2, 0.4 uM protein, 0.1 uM dsDNA library, 30 min, room temperature, amylose pull-down; high values mean tight binding
Conditions: protein: recombinant; tags: His6-MBP; chain copies: 2; dsDNA, one strand shown
In all, about 16,000 sequences were measured (“rpm ratio (pull-down/input)”: median about 0.5, highest 2% from about 5.5 on). For the sample, the highest values were picked, then their nearest neighbours and some sequences at random.
measured metric: binding signal

residues: GATGATTGTTCTCCCAGCTGATGAATTTGATGTATCGAGTAAACAAATTTTCCTAATCTTTCTGTTCAAGCGCCATCTAC
result: 4.63 RPM ratio (pull-down/input)

residues: GATGATTGTTCTCCCAGCTGATGAATTATCCTGCTCGAGTAAACAAATTTTCCTAATCTTTCTGTTCAAGCGCCATCTAC
result: 0.234 RPM ratio (pull-down/input)

residues: GATGATTGTTCTCCCAGCTGATGAATTGTGTTTGTCGAGTAAACAAATTTTCCTAATCTTTCTGTTCAAGCGCCATCTAC
result: 8.45 RPM ratio (pull-down/input)

residues: GATGATTGTTCTCCCAGCTGATGAATTTAGGGTATCGAGTAAACAAATTTTCCTAATCTTTCTGTTCAAGCGCCATCTAC
result: 1.02 RPM ratio (pull-down/input)

residues: GATGATTGTTCTCCCAGCTGATGAATTTGTATGCTCGAGTAAACAAATTTTCCTAATCTTTCTGTTCAAGCGCCATCTAC
result: 6.51 RPM ratio (pull-down/input)

residues: GATGATTGTTCTCCCAGCTGATGAATTGTCGTAGTCGAGTAAACAAATTTTCCTAATCTTTCTGTTCAAGCGCCATCTAC
result: 0.56 RPM ratio (pull-down/input)

We next turn to a different sequence, shown below.
Supply reported binding signal belonging to this sequence: "GATGATTGTTCTCCCAGCTGATGAATTGGGTGTCTCGAGTAAACAAATTTTCCTAATCTTTCTGTTCAAGCGCCATCTAC"
1.29 RPM ratio (pull-down/input)
